# SYSTEM_TESTED: GABA-A receptor; alpha-1/beta-3/gamma-2 (Homo sapiens) (UniProt P14867+P18507+P28472)
# PROTOCOL_DESCRIPTION: Inhibition of R-mTFD-MPAB-induced [3H]muscimol binding to full length human N-terminal flag-tagged alpha1-beta3-C-terminal 1D4-tagged gamma2 GABAA receptor extracted from Tetracycline-resistant HEK293 cell membrane assessed as fold change at 300 uM incubated for 30 mins
# Assay type: cell membranes
# RECORDED_CONDITIONS: filed as modulator

COMPOUND | fold change (FC)
CN=C1NC(=O)C2(CCc3ccccc32)C(=O)N1 (stereo unspecified) | 0.35
O=C1NC(=O)C2(CCc3ccc(F)cc32)C(=O)N1 | 0.73
CN1C(=O)NC(=O)C2(CCCc3ccccc32)C1=O (stereo in doubt; 2h-1) | 0.9
CCN1C(=O)NC(=O)C2(CCc3ccccc32)C1=O (stereo in doubt; 1i-2) | 0.86
Cc1ccc2c(c1)C1(CC2)C(=O)NC(=N)NC1=O (stereo unspecified) | 0.36
CCC1(c2ccccc2)C(=O)NC(=O)NC1=O | 0.88
NC1CC2(C(=O)NC(=O)NC2=O)c2ccccc21 (racemic) | 0.81
O=C1NC(=S)NC(=O)C12CCc1ccc(Br)cc12 | 0.74
NN=C1NC(=O)C2(CCc3ccccc32)C(=O)N1 (stereo unspecified) | 0.66
CC1Cc2ccccc2C12C(=O)NC(=O)NC2=O (stereo in doubt; 10g-1) | 0.9
CN1C(=O)NC(=O)C2(CCc3ccc(Br)cc32)C1=O (stereo in doubt; 6h-1) | 0.99

* * *

# SYSTEM_TESTED: GABA-A receptor; alpha-1/beta-3/gamma-2 (Homo sapiens, UniProt P14867+P18507+P28472)
# Sequence (P14867 whole entry): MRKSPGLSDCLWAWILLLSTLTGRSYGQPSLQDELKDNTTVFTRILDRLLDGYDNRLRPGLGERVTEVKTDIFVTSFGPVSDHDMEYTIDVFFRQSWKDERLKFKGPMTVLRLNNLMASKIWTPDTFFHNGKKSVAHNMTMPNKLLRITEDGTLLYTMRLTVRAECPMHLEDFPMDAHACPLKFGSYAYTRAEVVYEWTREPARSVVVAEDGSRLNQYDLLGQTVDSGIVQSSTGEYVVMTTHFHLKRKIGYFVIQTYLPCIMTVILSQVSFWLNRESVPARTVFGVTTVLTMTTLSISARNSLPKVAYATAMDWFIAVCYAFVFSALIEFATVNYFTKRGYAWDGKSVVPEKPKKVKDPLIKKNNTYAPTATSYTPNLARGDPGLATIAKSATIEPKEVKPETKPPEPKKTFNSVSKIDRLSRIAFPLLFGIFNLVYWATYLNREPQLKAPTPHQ
# Sequence (P18507 whole entry): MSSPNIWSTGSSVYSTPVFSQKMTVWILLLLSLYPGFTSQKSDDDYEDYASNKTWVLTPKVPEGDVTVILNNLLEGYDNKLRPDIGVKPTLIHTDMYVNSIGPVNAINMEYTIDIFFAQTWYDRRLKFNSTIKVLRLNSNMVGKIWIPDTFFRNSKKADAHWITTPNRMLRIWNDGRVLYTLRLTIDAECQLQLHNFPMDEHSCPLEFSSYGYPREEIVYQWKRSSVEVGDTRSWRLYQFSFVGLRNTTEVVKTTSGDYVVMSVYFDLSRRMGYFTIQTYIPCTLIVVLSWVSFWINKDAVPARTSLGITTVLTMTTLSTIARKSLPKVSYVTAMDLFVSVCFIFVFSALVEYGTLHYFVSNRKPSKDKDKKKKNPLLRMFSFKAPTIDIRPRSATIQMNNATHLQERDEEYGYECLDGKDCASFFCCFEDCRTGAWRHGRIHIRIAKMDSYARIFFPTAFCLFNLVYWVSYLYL
# Sequence (P28472 whole entry): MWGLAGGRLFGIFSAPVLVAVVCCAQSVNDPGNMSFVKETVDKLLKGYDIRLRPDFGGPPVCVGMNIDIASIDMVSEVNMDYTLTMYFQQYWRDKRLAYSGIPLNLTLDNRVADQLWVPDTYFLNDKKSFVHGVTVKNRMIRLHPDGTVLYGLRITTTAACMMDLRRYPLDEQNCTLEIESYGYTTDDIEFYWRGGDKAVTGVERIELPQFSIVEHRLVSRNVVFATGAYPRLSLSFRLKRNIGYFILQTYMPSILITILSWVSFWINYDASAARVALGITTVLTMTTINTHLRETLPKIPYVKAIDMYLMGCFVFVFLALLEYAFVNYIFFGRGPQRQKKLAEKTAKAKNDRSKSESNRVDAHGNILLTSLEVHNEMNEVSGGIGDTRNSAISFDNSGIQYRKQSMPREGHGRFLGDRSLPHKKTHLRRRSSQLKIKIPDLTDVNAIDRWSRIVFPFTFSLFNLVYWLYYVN
# PROTOCOL_DESCRIPTION: Mixed effect on [3H]muscimol binding to full length human N-terminal flag-tagged alpha1-beta3-C-terminal 1D4-tagged gamma2 GABAA receptor extracted from Tetracycline-resistant HEK293 cell membrane assessed as [3H]muscimol binding incubated for 30 mins
# Format: cell membranes

COMPOUND | EC50 [µM]
Cc1ccc2c(c1)C1(CC2)C(=O)NC(=O)N(C)C1=O (stereo in doubt; 4h-2) | 32

This collection of values is drawn from ChEMBL document CHEMBL6134857.
